These entries and their values trace back to patent US20210324080A1.

target: T1, CTLA-4 on human T lymphocytes (PBMC, CD3+ T cells) (human, UniProt P16410 36-223)
T1 sequence (looked up): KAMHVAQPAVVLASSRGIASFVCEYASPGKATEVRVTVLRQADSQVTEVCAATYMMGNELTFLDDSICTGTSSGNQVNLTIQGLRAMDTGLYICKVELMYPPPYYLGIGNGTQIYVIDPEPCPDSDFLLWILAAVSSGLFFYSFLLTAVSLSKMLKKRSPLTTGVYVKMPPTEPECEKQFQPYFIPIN
assay.remarks: cell-based or functional assay
recorded.metric: IL-2 secretion, pg/ml, at 0.37 ug/ml, N = 2 (pg/mL)

# binder, observed.value
data = [
    ("40C4C6 fully human CTLA-4 antibody (human IgG1, kappa) (antibody, V domains shown, also called mAb09; mAb009) VH: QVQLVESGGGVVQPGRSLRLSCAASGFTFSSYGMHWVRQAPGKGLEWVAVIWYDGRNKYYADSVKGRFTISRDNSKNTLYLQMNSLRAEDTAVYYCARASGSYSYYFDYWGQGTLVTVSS VL: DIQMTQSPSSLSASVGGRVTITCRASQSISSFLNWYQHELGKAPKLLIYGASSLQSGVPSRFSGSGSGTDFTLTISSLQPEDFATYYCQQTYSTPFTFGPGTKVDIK", 2160),
]
